Entry source: paper PMC3998711

- system.tested: UniProt O60885
- procedure.summary: Isothermal titration calorimetry
- Format: binding
- experimental.parameters: ITC, 15 °C, 50 mM HEPES, 150 mM NaCl; error of the fit
measure.name: Kd

test_smiles=CN(c1ccccc1CNc1nc(Nc2ccc3c(c2)CC(=O)N3)ncc1C(F)(F)F)S(C)(=O)=O system_tested="UniProt O60885" measure_name=Kd result="0.445 µM"

* * *

- system.tested: PLK family
- procedure.summary: Kinome-wide profiling, PLK family
- experimental.parameters: read-out: Kds, PLK family; kinome-wide data
pKd: −log10 of the molar value.
measure.name: pKd

molecule="CC(C)CCN1c2nc(Nc3cc(F)c(O)c(F)c3)ncc2N(C)C(=O)C1C (stereo not shown) [BI-D1870]" result=~8.00
